System: C. albicans
Assay: Minimum inhibitory concentration for fungi, tube dilution, C. albicans (Table IV)
Details: Candida albicans, 48 h, read-out: Minimum Inhibitory Concentration, C. albicans
Kindly state log10 of MIC for each of the entries shown.
Plainly stated, the numbers are log10 of MIC given in µg/mL.

Below are worked cases with known answers.
| COMPOUND | QUANTITATIVE RESULT |
| --- | --- |
| CCN(CC)CCN1CCN(C(C)C(O)(Cc2ccccc2)Cc2ccccc2)CC1 (stereo not drawn) | 3.01 |
| CC(C(=Cc1ccccc1)Cc1ccccc1)N1CCN(CCN2CCN(C)CC2)CC1 (stereo not drawn) | 0.60 |
| CC(C(=Cc1ccccc1)Cc1ccccc1)N1CCN(CCN2CCN(CCc3ccccc3)CC2)CC1 (stereo not drawn) | 0.60 |
| CC(N1CCN(CCO)CC1)C(O)(Cc1ccc(Cl)cc1)Cc1ccc(Cl)cc1 (stereo not drawn) | 1.51 |

Go through the items and report each one's log10 of MIC.
1. Clc1ccc(C=C(CCN2CCN(CCN3CCCCC3)CC2)Cc2ccc(Cl)cc2)cc1
2. CC(C(=Cc1ccccc1)Cc1ccccc1)N1CCN(CCN2CCCC2)CC1 (stereo not drawn)
3. CC1CCN(CCN2CCN(C(C)C(O)(Cc3ccccc3)Cc3ccccc3)CC2)CC1 (stereo not drawn)
4. CC(N1CCN(CCN2CCN(CCc3ccccc3)CC2)CC1)C(O)(Cc1ccccc1)Cc1ccccc1 (stereo not drawn)

Marked response:
1. 1.51
2. 0.90
3. 1.20
4. 1.51

====

Tested on: C. albicans
Assay: Minimum inhibitory concentration for fungi in presence of serum, C. albicans (Table VI)
Type: cell-based
Settings: Candida albicans; Sabouraud nutrient broth + 10% bovine serum, 28°C, 48 hours
Kindly state MIC for each of the entries shown.
One number for each entry, in µg/mL.

Below are worked cases with known answers.
| MOLECULE | MIC, µg/mL |
| --- | --- |
| CCCCCCCC[N+](C)(C)CCN1CCN(C(C)C(=Cc2ccccc2)Cc2ccccc2)CC1 (centres unmarked) [XLIII] | 128 |
| C(=C(CCN1CCN(CCN2CCCCC2)CC1)Cc1ccccc1)c1ccccc1 [LXIV] | 128 |

Go through the items and report each one's MIC.
1. Clc1ccc(C=C(CCN2CCN(CCN3CCCCC3)CC2)Cc2ccc(Cl)cc2)cc1 [LXIII]
2. CC(C(=Cc1ccccc1)Cc1ccccc1)N1CCN(CCN2CCN(Cc3ccccc3)CC2)CC1 (centres unmarked) [XXXVII]
3. CN1CCN(CCCCCCN2CCN(CCC(=Cc3ccccc3)Cc3ccccc3)CC2)CC1 [LXV]

Marked response:
1. 128
2. 512
3. 32

====

Kindly state log10 MIC for each of the entries shown.
Tested on: C. albicans
Assay: Minimum inhibitory concentration for fungi, tube dilution, C. albicans (Table IV)
Conditions: Candida albicans, 48 h, read-out: Minimum Inhibitory Concentration, C. albicans
Plainly stated, the numbers are log10 of MIC given in µg/mL.

Go through the items and report each one's log10 MIC.
1. CC(C(=Cc1ccccc1Cl)Cc1ccccc1Cl)N1CCN(CCN2CCN(C)CC2)CC1 (centres unmarked)
2. CC(C(=Cc1ccccc1)Cc1ccccc1)N1CCN(CCN(C(C)C)C(C)C)CC1 (centres unmarked)
3. CC(C(=Cc1ccccc1)Cc1ccccc1)N1CC[N+]2(CCCCCC2)CC1 (centres unmarked)
4. CNCCCCCCN1CCN(C(C)C(=Cc2ccccc2)Cc2ccccc2)CC1 (centres unmarked)
5. CC(C(=Cc1ccccc1)Cc1ccccc1)N1CCN(CCN2CCCCC2)CC1 (centres unmarked)

Marked response:
1. 0.60
2. 1.81
3. 2.11
4. 0.30
5. 1.20

Exam item: State the measured log10 MIC (C. albicans) of CC(N1CCN(CCN2CCCCC2)CC1)C(O)(Cc1ccccc1)Cc1ccccc1 (centres unmarked)
Marked response: 1.51

====

Test system: A. niger
Assay: Minimum inhibitory concentration for fungi in presence of serum, A. niger (Table VI)
Type: cell-based
Details: Aspergillus niger; Sabouraud nutrient broth + 10% bovine serum, 28°C, 48 hours
Kindly state MIC for each of the entries shown.
Answers are plain numbers, in µg/mL.

Go through the items and report each one's MIC.
1. Clc1ccc(C=C(CCN2CCN(CCN3CCCCC3)CC2)Cc2ccc(Cl)cc2)cc1
2. C(=C(CCN1CCN(CCN2CCCCC2)CC1)Cc1ccccc1)c1ccccc1
3. CC(C(=Cc1ccccc1)Cc1ccccc1)N1CCN(CCN2CCCC2)CC1 (centres unmarked)
4. CCCCCCCCNCCCCCCN1CCN(C(C)C(=Cc2ccccc2)Cc2ccccc2)CC1 (centres unmarked)
5. CC(C(=Cc1ccccc1)Cc1ccccc1)N1CC[N+]2(CCCCCC2)CC1 (centres unmarked)

Marked response:
32
8
32
2
128

====

Kindly state MIC for each of the entries shown.
System: C. albicans
Experiment: Minimum inhibitory concentration for fungi in presence of serum, C. albicans (Table VI)
Assay type: cell-based
Conditions: Candida albicans; Sabouraud nutrient broth + 10% bovine serum, 28°C, 48 hours
Answers are plain numbers, in µg/mL.

Below are worked cases with known answers.
| COMPOUND | READOUT UNIT | MIC |
| --- | --- | --- |
| Cc1cccc(CC(O)(Cc2cccc(C)c2)C(C)N2CCN(C)CC2)c1 (stereo not drawn) [IL] | µg/mL | 256 |
| CC(C(=Cc1ccccc1)Cc1ccccc1)N1CCN(CCN(C)C)CC1 (stereo not drawn) [XXVI] | µg/mL | 16 |
| CC(C(=Cc1ccccc1Cl)Cc1ccccc1Cl)N1CCN(CCN2CCN(C)CC2)CC1 (stereo not drawn) [LXVI] | µg/mL | 1020 |
| CNCCN1CCN(C(C)C(=Cc2ccccc2)Cc2ccccc2)CC1 (stereo not drawn) [XXV] | µg/mL | 256 |
| CNCCCCCCN1CCN(C(C)C(=Cc2ccccc2)Cc2ccccc2)CC1 (stereo not drawn) [XLI] | µg/mL | 128 |
| CC(C(=Cc1ccccc1)Cc1ccccc1)N1CCN(CCN2CCN(CCc3ccccc3)CC2)CC1 (stereo not drawn) [XXXIX] | µg/mL | 64 |
| CC(N1CCN(CCO)CC1)C(O)(Cc1ccc(Cl)cc1)Cc1ccc(Cl)cc1 (stereo not drawn) [XLVII] | µg/mL | 256 |
| CC(N1CCN(CCN2CCN(C)CC2)CC1)C(O)(Cc1ccccc1)Cc1ccccc1 (stereo not drawn) [X] | µg/mL | 16 |

Turning now to a further compound:
Exam item: State the measured MIC (C. albicans) of CC(N1CCN(CCN2CCCCC2)CC1)C(O)(Cc1ccccc1)Cc1ccccc1 (stereo not drawn) [IV]
Marked response: 32

====

Tested on: C. albicans
Test: Minimum inhibitory concentration for fungi in presence of serum, C. albicans (Table VI)
Assay type: cell-based
Conditions: Candida albicans; Sabouraud nutrient broth + 10% bovine serum, 28°C, 48 hours
Kindly state MIC for each of the entries shown.

Below are worked cases with known answers.
| MOLECULE | TARGET OF ASSAY | MIC |
| --- | --- | --- |
| CC(N1CCN(CCCCCCN2CCCCC2)CC1)C(O)(Cc1ccccc1)Cc1ccccc1 (stereo not shown) | C. albicans | 128 µg/mL |
| CC(N1CCN(CCCN2CCCCC2)CC1)C(O)(Cc1ccccc1)Cc1ccccc1 (stereo not shown) | C. albicans | 16 µg/mL |
| CC(C(=Cc1ccc(Cl)cc1)Cc1ccc(Cl)cc1)N1CCN(CCN2CCN(C)CC2)CC1 (stereo not shown) | C. albicans | 256 µg/mL |

Go through the items and report each one's MIC.
1. Cc1cccc(CC(O)(Cc2cccc(C)c2)C(C)N2CCN(CCN3CCCCC3)CC2)c1 (stereo not shown)
2. CC1CCCCN1CCN1CCN(C(C)C(O)(Cc2ccccc2)Cc2ccccc2)CC1 (stereo not shown)
3. CC1CCCN(CCN2CCN(C(C)C(O)(Cc3ccccc3)Cc3ccccc3)CC2)C1 (stereo not shown)
4. CC(N1CCN(Cc2ccncc2)CC1)C(O)(Cc1ccccc1)Cc1ccccc1 (stereo not shown)

Marked response:
1. 256 µg/mL
2. 32 µg/mL
3. 16 µg/mL
4. 128 µg/mL

====

Test system: C. albicans
Assay: Minimum inhibitory concentration for fungi, tube dilution, C. albicans (Table IV)
Settings: Candida albicans, 48 h, read-out: Minimum Inhibitory Concentration, C. albicans
PROPERTY: MIC (µg/mL)
Give bare numbers, in µg/mL.

| COMPOUND | READOUT UNIT | MIC |
| --- | --- | --- |
| CC(N1CCN(CCN(C)C)CC1)C(O)(Cc1ccccc1)Cc1ccccc1 (stereo not drawn) | µg/mL | 64 |
| C(=C(CCN1CCN(CCN2CCCCC2)CC1)Cc1ccccc1)c1ccccc1 | µg/mL | 8 |
| CC(C(=Cc1ccccc1)Cc1ccccc1)N1CCN(CCN2CCN(Cc3ccccc3)CC2)CC1 (stereo not drawn) | µg/mL | 8 |
| CC1CCCCN1CCN1CCN(C(C)C(O)(Cc2ccccc2)Cc2ccccc2)CC1 (stereo not drawn) | µg/mL | 32 |

Turning now to a further compound:
Exam item: Give MIC for the following compound: CC(C(=Cc1ccccc1)Cc1ccccc1)N1CCN(CCN(C)C)CC1 (stereo not drawn)
Marked response: 8
